# Test system: Trypanosoma brucei rhodesiense (STIB 900 clone)
# procedure-summary: Drug sensitivity assay (Alamar Blue, 72 h) against bloodstream form trypomastigotes in vitro
# Type: cell-based
# experimental-context: T. b. rhodesiense STIB 900, in vitro, 72 h incubation, Alamar Blue, read-out: IC50
parameter: IC50 (µg/mL)

- compound-string: "CC[C@]1(O)C[C@@H]2CN(CCc3c([nH]c4ccccc34)[C@@](C(=O)OC)(c3cc4c(cc3OC)N(C)[C@H]3[C@@](O)(C(=O)OC)[C@H](OC(C)=O)[C@]5(CC)C=CCN6CC[C@]43[C@@H]65)C2)C1"
  IC50 (µg/mL): 0.13

P. COc1cccc2c1C(=O)c1c(O)c3c(c(O)c1C2=O)C[C@@](O)(C(=O)CO)C[C@@H]3O[C@H]1C[C@H](N)[C@H](O)[C@H](C)O1
Q. CC(=O)O[C@@]12CO[C@@H]1C[C@H](O)[C@@]1(C)C(=O)[C@H](O)C3=C(C)[C@@H](OC(=O)[C@H](O)[C@@H](NC(=O)OC(C)(C)C)c4ccccc4)C[C@@](O)([C@@H](OC(=O)c4ccccc4)[C@H]21)C3(C)C
q: Between the entries labeled P and Q , whose measured IC50 is lower? Reply briefly: the label of your chosen item.
a: Q

* * *

# System: Trypanosoma brucei rhodesiense (STIB 900 clone)
# procedure-summary: Drug sensitivity assay (Alamar Blue, 72 h) against bloodstream form trypomastigotes in vitro
# Format: cell-based
# experimental-context: T. b. rhodesiense STIB 900, in vitro, 72 h incubation, Alamar Blue, read-out: IC50
Measured IC50 of individual entries
Write the answer as a number in µg/mL, unit excluded.

- molecule: "CC(=O)O[C@H]1C(=O)[C@@]2(C)[C@H]([C@H](OC(=O)c3ccccc3)[C@]3(O)C[C@H](OC(=O)[C@H](O)[C@@H](NC(=O)c4ccccc4)c4ccccc4)C(C)=C1C3(C)C)[C@]1(OC(C)=O)CO[C@@H]1C[C@@H]2O"
  measurement-units: "µg/mL"
  IC50: 0.01
- molecule: "CN(C)/N=N/c1[nH]cnc1C(N)=O"
  measurement-units: "µg/mL"
  IC50: 19.7
- molecule: "Cn1nnc2c(C(N)=O)ncn2c1=O [Temozolomide]"
  measurement-units: "µg/mL"
  IC50: 27.7

# next molecule below
Measured IC50, O=NN(CCCl)C(=O)NCCCl : 2.18
